Assay: Nuclear factor erythroid 2-related factor 2/antioxidant responsive element (Nrf2/ARE) small molecule agonists: qHTS cell viability counter screen in human keratinocytes (AID 1919968); further: nearly all actives have a fitted effect of over 55% in size
Conditions: KeratinoSens HaCaT ARE cells viability, CellTiter-Fluor, 24 h; series mostly up to 92.4 µM
Source text: U.S. Tox21 Program National Center for Advancing Translational Sciences [NCATS] Division of Preclinical Innovation [DPI] U.S. Environmental Protection Agency [EPA] National Institutes of Environmental Health Sciences [NIEHS] National Toxicology Program [NTP] U.S. Food and Drug Administration [FDA] […] The activation of the report gene under culture conditions can be detected by ONE-Glo Luciferase Assay System (Promega, Madison, WI). […]
Records with an inconclusive call do not appear. Active and inactive are the calls of the source. The call rests on the fitted dose curve; in most records, active means well fitted cell-killing curve with a large enough effect in the repeat runs; inconclusive means weak or mixed curves, or effect the other way; inactive means flat fitted curve, though single readings scatter.
One label from this list, please: class 1 for active, class 0 for inactive

molecule	answer.label
O=Cc1ccc(Cl)cc1Cl	class 0

What outcome does the record of this test show for Cl/C=C\C[N+]12CN3CN(CN(C3)C1)C2 ?
class 0

Query: recorded result category for CCC[CH2][Sn]([Cl])([Cl])[Cl] in this test
class 0

Write down the call the test reported for this molecule. Item: ClCc1ccccn1
class 0

Could you kindly confirm the outcome this assay logged for CC(C)=CC1C(C(=O)OCN2C(=O)C3=C(CCCC3)C2=O)C1(C)C (centres undefined) ?
class 0

Answer briefly: the call reported for CN(C)NC(=O)CCC(=O)O in this assay.
class 0

How was CCOC(=O)C(c1c(O)c2ccccc2oc1=O)c1c(O)c2ccccc2oc1=O classified in this test?
class 0

What did this assay record as the result for C=C(C)C#N ?
class 0

Any idea what this test logged for ClCc1ccccc1CCl ?
class 0

How did this test come out for CCN(N=O)C(N)=O ?
class 0

Test call for this molecule, please: CC(C)(c1ccc(OCC2CO2)cc1)c1ccc(OCC2CO2)cc1 (centres undefined)
class 1

Which outcome was entered for the molecule CC(NC(C)(C)C)C(=O)c1cccc(Cl)c1 (centres undefined) in this test?
class 0

Tell me the recorded outcome of this test for CCCCCCCCCBr .
class 0

Record request — test call for ClCCOCOCCCl
class 0

###

Biological target: D(2) dopamine receptor (Homo sapiens) (UniProt P14416)
Sequence (P14416 whole entry, looked up): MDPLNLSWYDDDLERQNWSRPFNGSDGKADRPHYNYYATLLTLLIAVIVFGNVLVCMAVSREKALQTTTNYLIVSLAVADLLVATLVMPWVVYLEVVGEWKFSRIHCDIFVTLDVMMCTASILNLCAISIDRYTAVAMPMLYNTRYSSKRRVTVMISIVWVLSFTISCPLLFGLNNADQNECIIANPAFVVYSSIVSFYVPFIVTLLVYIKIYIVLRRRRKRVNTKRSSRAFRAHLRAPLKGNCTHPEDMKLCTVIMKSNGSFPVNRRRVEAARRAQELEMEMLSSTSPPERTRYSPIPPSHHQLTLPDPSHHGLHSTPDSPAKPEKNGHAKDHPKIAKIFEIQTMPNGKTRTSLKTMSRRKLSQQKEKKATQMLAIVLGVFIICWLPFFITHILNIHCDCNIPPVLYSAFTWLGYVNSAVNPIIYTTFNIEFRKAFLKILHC
Assay: Dopamine D2 receptor (DRD2) small molecule agonists, cell-based qHTS assay (AID 1963594); further: nearly all actives have a fitted effect of over 35% in size
Details: HEK293-DRD2 cAMP HTRF, agonist mode, 30 min; series mostly up to 92.4 µM
Results filed as inconclusive are left out. Calls of active or inactive are those of the source. Calls come from the whole dose curve.
observable: activation

molecule	activation
Clc1ccccc1-c1nnc(-c2ccccc2Cl)nn1	inactive
C[C@]12CC[C@H](O)CC1=CC[C@@H]1[C@@H]2CC[C@]2(C)C(=O)CC[C@@H]12	inactive
COc1ccccc1N	inactive
CCNc1nc(NC(C)C)nc(OC)n1	inactive
CCCCC(C#N)(Cn1cncn1)c1ccc(Cl)cc1 (centres undefined)	inactive
CCC(C)(CC)c1cc(NC(=O)c2c(OC)cccc2OC)on1	inactive
Cc1ccc(CCl)cc1	inactive
COC[C@@H](NC(C)=O)C(=O)NCc1ccccc1	inactive
ClCc1ccccc1CCl	inactive
CCCCCCCCCCCCOS(=O)(=O)O	inactive

Then this molecule:
Short answer for COP(=S)(OC)SCn1nnc2ccccc2c1=O : activation was inactive

###

Target: Muscarinic acetylcholine receptor M1 (Homo sapiens) (UniProt P11229)
Sequence (P11229 whole entry, looked up): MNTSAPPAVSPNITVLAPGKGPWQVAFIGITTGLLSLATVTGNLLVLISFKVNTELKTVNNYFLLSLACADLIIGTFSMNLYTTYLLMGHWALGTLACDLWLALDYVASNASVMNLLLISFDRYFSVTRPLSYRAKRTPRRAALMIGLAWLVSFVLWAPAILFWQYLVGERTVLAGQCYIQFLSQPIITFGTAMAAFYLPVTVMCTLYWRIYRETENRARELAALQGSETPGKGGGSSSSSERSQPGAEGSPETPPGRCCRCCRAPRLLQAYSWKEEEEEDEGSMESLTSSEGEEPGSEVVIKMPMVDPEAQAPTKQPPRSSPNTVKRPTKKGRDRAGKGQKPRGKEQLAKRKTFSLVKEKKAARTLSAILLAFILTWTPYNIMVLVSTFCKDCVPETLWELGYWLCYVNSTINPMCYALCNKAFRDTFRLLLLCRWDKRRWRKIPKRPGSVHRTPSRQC
Assay: Cholinergic receptor muscarinic 1 (CHRM1) small molecule antagonists, cell-based qHTS assay (AID 1963588); further: nearly all actives have a fitted effect of over 40% in size
Conditions: CHRM1-CHO antagonist mode, calcium flux fluorescence; series mostly up to 61.5 µM
Results filed as inconclusive are left out. Activity calls are given as the source filed them. Calls follow the shape of the full dose curve.
The categories you may choose from are yes = active, no = inactive

compound	system.name	answer.label
Oc1cc(Cl)ccc1Oc1ccc(Cl)cc1Cl	Muscarinic acetylcholine receptor M1 (Homo sapiens) (UniProt P11229)	no
O=S(=O)(c1ccccc1)c1ccccc1	Muscarinic acetylcholine receptor M1 (Homo sapiens) (UniProt P11229)	no
CN(C)c1ccc(N=O)cc1	Muscarinic acetylcholine receptor M1 (Homo sapiens) (UniProt P11229)	no
O=P(O)(Oc1ccccc1)Oc1ccccc1	Muscarinic acetylcholine receptor M1 (Homo sapiens) (UniProt P11229)	no

Just curious, what result did C[Si](Cn1cncn1)(c1ccc(F)cc1)c1ccc(F)cc1 get here?
yes

Which outcome was entered for the compound CCCCCCCCCC(CC)c1ccc(S(=O)(=O)O)cc1 (configuration not stated) in this test?
no

Called result for O=C1C2CC=CCC2C(=O)N1SC(Cl)(Cl)Cl (configuration not stated)
no
